These measurements were taken from the supplement of paper PMC10567573.

B1: CCDC6 (parent)
chain: FTPPTSLTRAGMSYYNSPGLHVQH

- Variants of: B1
- testDetails: protein stability index of a GFP-peptide fusion (GPS, HEK-293T) (PSI 1-6); higher = more stable;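 further: lentivirally expressed fusions sorted by FACS into six bins by GFP to DsRed ratio, PSI derived from sequencing read proportions per bin multiplied by bin number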
- conditionContext: c terminus: a fixed tail appended
protein stability index for assorted variants
testReadout: protein stability index

1) FTPVTSLTRAGMSYYNSPGLHVQH [P4V] :: 2.5
2) FTPPTSLTRAGMSYYNSPVLHVQH [G19V] :: 3.1
3) FTPPTSLTRAHMSYYNSPGLHVQH [G11H] :: 1.69
4) FTPPTSLTRAGNSYYNSPGLHVQH [M12N] :: 2.12
5) FTPPTSLTRAGMCYYNSPGLHVQH [S13C] :: 1.55
